Tested on: ducksalad (Heteranthera limosa)
Test: Test B flooded paddy test
Assay type: in vivo
Conditions: Heteranthera limosa, Flood, 250 g ai/ha; scale of 0 to 100 where 0 is no effect and 100 is complete control; read-out: Ducksalad plant response rating
In this section, each of the compounds is paired with its reported pest or weed control at 250 g/ha.
Provide only the numeric value, understood in %.

[
  {
    "Compound": "CC(C)COc1cccc([C@H]2CNC(=O)[C@@H]2C(=O)Nc2ccccc2F)c1",
    "Unit Label": "%",
    "pest or weed control at 250 g/ha": 75
  }
]

Lab note: Cc1c(F)cccc1NC(=O)[C@H]1C(=O)N(C)C[C@@H]1c1cccc(COC(F)F)c1 gave pest or weed control at 250 g/ha of 100

Form field pest or weed control at 250 g/ha, entry CN1C[C@H](c2cccc([N+](=O)[O-])c2)[C@@H](C(=O)Nc2cccc(F)c2F)C1=O (racemic) : 80

Record Cc1cc([C@H]2CNC(=O)[C@@H]2C(=O)Nc2ccccc2F)ccc1F . Reported pest or weed control at 250 g/ha: 100

###

Test system: barnyardgrass (Echinochloa crus-galli)
Assay: Test A preemergence
Assay type: in vivo
Settings: Echinochloa crus-galli, pre-emergence, 240 h, 500 g ai/ha, preemergence; 0 to 100 scale (0 no effect, 100 complete control); read-out: Plant response rating, Barnyardgrass
Recorded pest or weed control at 500 g/ha for the following compounds
Give the number; % is assumed, so skip it.

Use these answered entries as a reference point.
[
  {
    "Molecule Smiles": "Cc1c(F)cccc1NC(=O)[C@H]1C(=O)N(C)C[C@@H]1c1ccc(C(F)(F)F)cc1",
    "Unit Label": "%",
    "pest or weed control at 500 g/ha": 100
  },
  {
    "Molecule Smiles": "COc1cc(OC)cc([C@H]2CN(C)C(=O)[C@@H]2C(=O)Nc2cccc(F)c2F)c1",
    "Unit Label": "%",
    "pest or weed control at 500 g/ha": 90
  },
  {
    "Molecule Smiles": "Cc1c(F)ccc([C@H]2CNC(=O)[C@@H]2C(=O)Nc2ccc(F)cc2F)c1F",
    "Unit Label": "%",
    "pest or weed control at 500 g/ha": 90
  },
  {
    "Molecule Smiles": "Cc1ccc([C@H]2CN(C)C(=O)[C@@H]2C(=O)Nc2ccccc2F)cc1Cl",
    "Unit Label": "%",
    "pest or weed control at 500 g/ha": 90
  }
]

Now for the compound whose pest or weed control at 500 g/ha we want.
Form field pest or weed control at 500 g/ha, entry CC(C)c1cccc([C@H]2CN(C)C(=O)[C@@H]2C(=O)Nc2cccc(F)c2F)c1 : 100

###

Test system: giant foxtail (Setaria faberi)
Assay: Test G Post-Emergence Protocol
Type: in vivo
Conditions: Setaria faberi, post-emergence, 312 h, 62.5 g ai/ha, evaluated after 13 days, read-out: Foxtail, Giant damage rating (100=total damage to plant; 0=no damage to plant)
// returns Not met unless pest or weed control at 62.5 g/ha is strictly below 40%, in which case Met

[
  {
    "Compound": "CN1C[C@@H](c2ccc(C(F)(F)F)cc2)[C@H](C(=O)Nc2ccc(Cl)nn2)C1=O (racemic)",
    "Discrete Label": "Met"
  },
  {
    "Compound": "CN1C[C@H](c2cccc(C#N)c2)[C@@H](C(=O)Nc2ccccc2F)C1=O (racemic)",
    "Discrete Label": "Not met"
  },
  {
    "Compound": "CN1C[C@@H](c2ccc(C(F)(F)F)cc2)[C@H](C(=O)Nc2cc(C(F)(F)F)[nH]n2)C1=O (racemic)",
    "Discrete Label": "Met"
  }
]

pest or weed control at 62.5 g/ha strictly < 40% for this compound? CN1C[C@H](c2ccc3c(c2)CCCC3)[C@@H](C(=O)Nc2cccc(F)c2F)C1=O (racemic)
Not met

Identify whether the compound Cc1cc(Cl)ccc1NC(=O)[C@H]1C(=O)N(C)C[C@@H]1c1ccc(C(F)(F)F)cc1 (racemic) records pest or weed control at 62.5 g/ha below 40%.
Met

Quick check: pest or weed control at 62.5 g/ha of Cc1cccc(NC(=O)[C@@H]2C(=O)N(C)C[C@H]2c2ccc(C(F)(F)F)cc2)c1[N+](=O)[O-] (racemic) under 40%?
Not met

Here's an entry: COc1cccc(NC(=O)[C@@H]2C(=O)N(C)C[C@H]2c2ccc(C(F)(F)F)cc2)n1 (racemic) . Is its pest or weed control at 62.5 g/ha below 40%?
Not met

Determine whether this compound shows pest or weed control at 62.5 g/ha lower than 40% (ties excluded): CN1C[C@@H](c2ccc(C(F)(F)F)cc2)[C@H](C(=O)Nc2cncnc2)C1=O (racemic)
Met

API: query returns whether the compound falls strictly under 40% in pest or weed control at 62.5 g/ha. Query: CN1C[C@@H](c2ccc(C(F)(F)F)cc2)[C@H](C(=O)Nc2ccnnc2)C1=O (racemic)
Met

Determine if CN1C[C@H](c2ccc(C(F)(F)F)cc2)[C@@H](C(=O)Nc2ncc(Cl)cc2Cl)C1=O (racemic) shows pest or weed control at 62.5 g/ha strictly lower than 40%.
Met

Identify whether the compound CN1C[C@H](c2ccc(C(F)(F)F)cc2)[C@@H](C(=O)Nc2ccc(C(F)(F)F)c(F)c2F)C1=O (racemic) records pest or weed control at 62.5 g/ha below 40%.
Met

Consider the compound CN1C[C@H](c2ccc(C(F)(F)F)cc2)[C@@H](C(=O)Nc2cccc(C(F)F)c2)C1=O (racemic) . Is its pest or weed control at 62.5 g/ha strictly less than 40%?
Met

Is 40% strictly greater than the compound's reported pest or weed control at 62.5 g/ha? compound: CCOC(=O)c1cccc([C@H]2CN(C)C(=O)[C@@H]2C(=O)Nc2ccccc2F)c1 (racemic)
Met
